Species on record: Mus musculus
Assay: Skin irritant activity in NMRI mouse ear assessed as irritancy after 24 hrs
Assay type: ADME, organism-based
Settings: in vivo
What Activity was measured for each of the following?
Answers are plain numbers, in nmol⁻¹.

molecule: C=C(C)[C@]12C[C@@H](C)[C@@]34O[C@](CCCCCCCCCCCCCCC)(O[C@@H]1[C@@H]3[C@@H]1O[C@]1(CO)[C@@H](O)[C@]1(O)C(=O)C(C)=C[C@H]14)O2
readout kind: Activity
numeric result: 25
--
molecule: C=C(C)[C@]12O[C@@]3(/C=C/C=C/C=C\CCC)O[C@@H]1[C@@H]1[C@@H]4O[C@]4(CO)[C@@H](O)[C@]4(O)C(=O)C(C)=C[C@H]4[C@@]1(O3)[C@H](C)[C@H]2OC(C)=O
readout kind: Activity
numeric result: 0.91
--
molecule: C=C(C)[C@]12O[C@@]3(/C=C/C=C/C=C\CCC)O[C@@H]1[C@@H]1[C@@H]4O[C@]4(CO)[C@@H](O)[C@]4(O)C(=O)C(C)=C[C@H]4[C@@]1(O3)[C@H](C)[C@H]2O
readout kind: Activity
numeric result: 1.2
--
molecule: C=C(C)[C@]12O[C@@]34/C=C/CCCCCCCCCCCC(C)[C@H]5[C@H](C)C(=O)[C@@]6(O)[C@H](O)[C@@]7(CO)O[C@H]7[C@@H]([C@H]1O3)[C@](O4)([C@H](C)[C@H]2O)[C@H]56 (some centres undefined)
readout kind: Activity
numeric result: 667
--
molecule: C=C(C)[C@@]1(O)C[C@@H](C)[C@@]2(O)[C@H]([C@H]1OC(=O)/C=C/CCCCCCCCCCCCC)[C@@H]1O[C@]1(CO)[C@@H](O)[C@]1(O)C(=O)C(C)=C[C@H]12
readout kind: Activity
numeric result: 29
--
molecule: C=C(C)[C@@]1(OC(=O)/C=C/CCCCCCCCCCCCC)C[C@@H](C)[C@@]2(O)[C@H]([C@H]1O)[C@@H]1O[C@]1(CO)[C@@H](O)[C@]1(O)C(=O)C(C)=C[C@H]12
readout kind: Activity
numeric result: 13
--
molecule: C=C(C)[C@@]12C[C@@H](C)[C@@]34O[C@@]5(/C=C/CCCCCCCCCCCC(C)[C@H]6[C@H](C)C(=O)[C@@](O)([C@H](O)[C@@]7(COC(=O)CCCCCCCCCCCCCCC)O[C@H]7[C@H]3[C@H]1O5)[C@@H]64)O2 (some centres undefined)
readout kind: Activity
numeric result: 53
--
molecule: C=C(C)[C@]12C[C@@H](C)[C@@]34O[C@](/C=C/CCCCCCCCCCCCC)(O[C@@H]1[C@@H]3[C@@H]1O[C@]1(CO)[C@@H](O)[C@]1(O)C(=O)C(C)=C[C@H]14)O2
readout kind: Activity
numeric result: 50

Kindly note the recorded Activity for "C=C(C)[C@@]1(O)C[C@@H](C)[C@@]2(O)[C@H]([C@H]1OC(=O)/C=C/CCCCCCCCCCCCC)[C@@H]1O[C@]1(COC(=O)CCCCCCCCCCCCCCC)[C@@H](O)[C@]1(O)C(=O)C(C)=C[C@H]12" , which is 0.15
